Molecular target: human CB1 receptor (Homo sapiens)
Construct: expressed in transfected cells; host or cells: SK-N-MC cells, stably transfected with pcDNA3 CB-1 (human); semi-purified membrane pellet
Sequence (P21554 whole entry): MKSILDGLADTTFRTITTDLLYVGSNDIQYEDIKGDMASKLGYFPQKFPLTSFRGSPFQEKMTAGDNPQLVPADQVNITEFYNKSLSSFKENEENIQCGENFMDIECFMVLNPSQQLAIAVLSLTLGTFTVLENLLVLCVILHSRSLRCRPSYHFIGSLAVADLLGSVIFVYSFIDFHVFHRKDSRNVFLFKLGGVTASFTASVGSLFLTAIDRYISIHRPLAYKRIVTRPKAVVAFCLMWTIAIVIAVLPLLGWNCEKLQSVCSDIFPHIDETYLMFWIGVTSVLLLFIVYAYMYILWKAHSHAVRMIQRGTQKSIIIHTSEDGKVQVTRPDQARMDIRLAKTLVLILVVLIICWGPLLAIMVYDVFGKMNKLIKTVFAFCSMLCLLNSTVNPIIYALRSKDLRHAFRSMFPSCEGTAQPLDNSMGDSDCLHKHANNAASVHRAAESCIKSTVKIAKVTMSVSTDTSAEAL
Assay: biochemical
Assay type: binding
Protocol: Binding Assay for CB1 or CB2 Agonists or Inverse Agonists The human CB1 and CB2 receptors were stably expressed in SK-N-MC cells transfected with pcDNA3 CB-1 (human) or pcDNA3 CB-2 (human). The cells were grown in T-180 cell culture flasks under standard cell culture conditions at 37° C. in a 5% CO2 atmosphere. […] The IC50 binding values for compounds tested were calculated by linear regression and were obtained from studies in which varying compound concentrations were used.
// values below are reported IC50
# value in nM; strip the unit string

MOLECULE: O=C(NC1C2CC3CC(C2)CC1C3)c1nn(-c2ccc(Cl)cc2Cl)c2c1CCCC2 (stereo not drawn)
SYSTEM UNDER TEST: human CB1 receptor (Homo sapiens)
OUTPUT UNIT: nM
REPORTED VALUE: 30

MOLECULE: CC12CCC(C1)C(C)(C)C2NC(=O)c1nn(-c2ccc(F)cc2)c2c1CCCC2CCc1ccccc1 (stereo not drawn)
SYSTEM UNDER TEST: human CB1 receptor (Homo sapiens)
OUTPUT UNIT: nM
REPORTED VALUE: 590

MOLECULE: O=C(NC1CC2CCC1C2)c1nn(-c2ccc(F)cc2)c2c1CCCC2 (stereo not drawn)
SYSTEM UNDER TEST: human CB1 receptor (Homo sapiens)
OUTPUT UNIT: nM
REPORTED VALUE: 169

MOLECULE: O=C(NC1C2CC3CC(C2)CC1C3)c1nn(C2CCCCC2)c2c1CC(C(=O)Nn1cnnc1)CC2 (stereo not drawn)
SYSTEM UNDER TEST: human CB1 receptor (Homo sapiens)
OUTPUT UNIT: nM
REPORTED VALUE: 6400

MOLECULE: CCOC(=O)C1CCCc2c1c(C(=O)NC1C3(C)CCC(C3)C1(C)C)nn2C1CCCCC1 (stereo not drawn)
SYSTEM UNDER TEST: human CB1 receptor (Homo sapiens)
OUTPUT UNIT: nM
REPORTED VALUE: 760

[Q] Identify measured IC50 associated with `O=C(NCc1cccnc1)c1nn(C2CCCCC2)c2c1CCCC2`
[A] 444
